# Assay Procedure: chemical genetic growth profiling, strain panel (AID 1159580);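 note: tested at 20 µM; growth read once vehicle control cultures reached saturation at 30 °C; 1 = growth at the plate median or of vehicle wells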
# Condition Info: S. cerevisiae deletion strains, growth OD, locus YNL322C, strain KRE1 (second series), stronger effect = lower value
In all, about 5,500 compounds went through this assay and about 2,000 (36%) were called active. Another 18% or so got no clear call; they are omitted. Some of the results follow.

| Compound | normalized growth |
| --- | --- |
| COc1ccc(-c2oc3cc(O[C@H]4O[C@H](CO)[C@@H](O)[C@H](O)[C@H]4O)c(OC)c(O)c3c(=O)c2OC)cc1O | 0.999 |
| COc1ccc(-c2cc(=O)c3c(O)cc(O[C@@H]4O[C@H](CO[C@H]5O[C@H](C)[C@@H](O)[C@H](O)[C@@H]5O)[C@@H](O)[C@H](O)[C@H]4O)cc3o2)cc1O | 1.02 |
| C[C@@H]1O[C@@H](OC[C@H]2OC(Oc3c(-c4ccc(O)c(O)c4)oc4cc(O)cc(O)c4c3=O)[C@H](O)[C@@H](O)[C@@H]2O)[C@H](O)[C@H](O)[C@H]1O (some centres undefined) | 0.997 |
| O=C1[O][Bi][O]c2ccccc21 | 1.05 |

====

# Assay Procedure: chemical genetic growth profiling, strain panel (AID 1159580)
# Condition Info: S. cerevisiae deletion strains, growth OD, locus YLR262C, strain YPT6 (second series)
Screen size: about 5,500 compounds; about 2,000 (36%) were called active. About 18% were inconclusive and are not listed. No stated cut-off is given here; in the data, active means normalized growth mostly below about 0.91 (no sharp cut-off); inconclusive means no clear call, values can overlap the other calls; inactive means mostly above about 0.92. Some of the results follow.
Classes used: active, inactive

| Molecule | Class Assignment |
| --- | --- |
| CC1O[C@@H](Oc2c(-c3ccc(O)c(O)c3)oc3cc(O)cc(O)c3c2=O)[C@H](O)[C@H](O)[C@H]1O (stereo partly specified) | inactive |
| COc1ccc(-c2oc3cc(O[C@H]4O[C@H](CO)[C@@H](O)[C@H](O)[C@H]4O)c(OC)c(O)c3c(=O)c2OC)cc1O | inactive |
| CN[C@@H]1C(O)[C@@H](O[C@@H]2[C@@H](O)[C@H](O[C@H]3OC(CN)=CC[C@H]3N)[C@@H](N)C[C@H]2N)OC[C@]1(C)O (stereo partly specified) | inactive |
| O=c1c(O)c(-c2ccc(O)c(O)c2)oc2c(O[C@@H]3O[C@H](CO)[C@H](O)[C@@H](O)[C@H]3O)c(O)cc(O)c12 | inactive |
| CCN[C@@H]1C[C@H](N)[C@@H](O[C@H]2OC(CN)=CC[C@H]2N)[C@H](O)[C@H]1OC1OC[C@](C)(O)[C@H](NC)[C@H]1O (stereo partly specified) | inactive |
| CC(C)c1c(O)ccc2c1CCC1[C@@](C)(CO)CCC[C@]21C (stereo partly specified) | active |

====

# Assay Procedure: chemical genetic growth profiling, strain panel (AID 1159580);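 note: tested at 20 µM; growth read once vehicle control cultures reached saturation at 30 °C; 1 = growth at the plate median or of vehicle wells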
# Condition Info: S. cerevisiae deletion strains, growth OD, locus YLR085C, strain ARP6
Among all 5,500 compounds or so, about 2,000 (36%) were called active. Another 18% or so got no clear call; they are omitted. No stated cut-off is given here; in the data, active means normalized growth mostly below about 0.91 (no sharp cut-off); inconclusive means no clear call, values can overlap the other calls; inactive means mostly above about 0.92. The list shows a part of the results.
Classes used: active, inactive

| Compound | Class Assignment |
| --- | --- |
| Cc1cc(I)c(C)cc1I | inactive |
| O=[N+]([O-])c1ccc(OCCCOc2ccc([N+](=O)[O-])cc2)cc1 | inactive |
| CCOC(=O)c1sc(SC(C)C)c2c1CCCC2=O | active |
| OC1(C(F)(F)F)CC(c2ccccc2)=NN1 (stereo unspecified) | inactive |
| CC(C)CC1NC(=O)NC1=O (stereo unspecified) | inactive |
| Cc1ccc(-c2csc(-c3ccc(Oc4ccc(C(F)(F)F)cn4)cc3)n2)c(C)c1 | inactive |
| ON=C(c1cccs1)c1cccs1 | active |
| O=C1NN=C2C3CC4CC12CC1(C3)C(=O)NN=C41 | inactive |
| S=c1nccc(-c2ccc(Cl)cc2)[nH]1 | active |
| O=C1NC(=O)/C(=C/c2ccc(OS(=O)(=O)c3ccc(Cl)cc3)cc2)N1 | inactive |
| C=C1SC(Nc2cccc(C(F)(F)F)c2)=NC12CCCCC2 | inactive |
| O=[N+]([O-])c1ccc(Oc2cccc3cccnc23)cc1 | inactive |
| Cn1c2c(c3c1CCCC3)CCCC2 | inactive |
| Cc1ccc(/C=C2\CCc3ccccc3C2=O)o1 | active |
| FC(F)(F)c1ccc(Cl)c(NC(=S)NN=C2CCCCCC2)c1 | active |
| Brc1ccc(-c2ccn[nH]2)s1 | active |

====

# Assay Procedure: chemical genetic growth profiling, strain panel (AID 1159580);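 note: tested at 20 µM; growth read once vehicle control cultures reached saturation at 30 °C; 1 = growth at the plate median or of vehicle wells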
# Condition Info: S. cerevisiae deletion strains, growth OD, locus YOR083W, strain WHI5
Screen size: about 5,500 compounds; about 2,000 (36%) were called active. Not shown: some 18% with an inconclusive outcome. Rule as the data show it: active = normalized growth mostly below about 0.91 (no sharp cut-off); inconclusive = no clear call, values can overlap the other calls; inactive = mostly above about 0.92. The list shows a part of the results.
Classes used: TRUE (active), FALSE (inactive)

| Molecule | Class Assignment |
| --- | --- |
| CC(C)c1c(O)c(-c2cc3c(c(C(C)C)c2O)CCC2C(C)(C)CCC[C@]32C)cc2c1CCC1C(C)(C)CCC[C@]21C (stereo not given in full) | FALSE |
| Cc1ccccc1OCC(O)CO (stereo not given) | FALSE |
| CC1(C)C=CC(=O)[C@@]2(C)C1CC(=O)[C@]1(C)C2CC[C@@]2(C)[C@H](c3ccoc3)OC(=O)C3OC321 (stereo not given in full) | FALSE |
| CC(C)c1c(O)ccc2c1CCC1C(C)(C)CCC[C@]21C (stereo not given in full) | TRUE |
| C[C@@H]1CC[C@@]2(OC1)O[C@H]1CC3C4CC[C@H]5C[C@@H](O)CC[C@]5(C)C4CC[C@]3(C)[C@H]1[C@@H]2C (stereo not given in full) | FALSE |

====

# Assay Procedure: chemical genetic growth profiling, strain panel (AID 1159580);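 note: tested at 20 µM; growth read once vehicle control cultures reached saturation at 30 °C; 1 = growth at the plate median or of vehicle wells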
# Condition Info: S. cerevisiae deletion strains, growth OD, locus YDL005C, strain med2
Screen size: about 5,500 compounds; about 2,000 (36%) were called active. Another 18% or so got no clear call; they are omitted. No stated cut-off is given here; in the data, active means normalized growth mostly below about 0.91 (no sharp cut-off); inconclusive means no clear call, values can overlap the other calls; inactive means mostly above about 0.92. This is one part of the list. Where a SMILES comes first, the peptide text is derived from it.
Classes used: active, inactive

| Compound | Class Assignment |
| --- | --- |
| COc1ccc(-c2oc3cc(O[C@H]4O[C@H](CO)[C@@H](O)[C@H](O)[C@H]4O)c(OC)c(O)c3c(=O)c2OC)cc1O | inactive |
| CCC1OC(=O)[C@H](C)C(=O)[C@H](C)[C@@H](OC2O[C@H](C)C[C@H](N(C)C)[C@H]2O)[C@](C)(OC)C2(CCCn3cnc(-c4cccnc4)c3)C[C@@H](C)C(=O)[C@H](C)[C@H]3N(C2)C(=O)O[C@]13C (stereo not given in full) | inactive |
| CCCCOc1cc(C(=O)NCCN(CC)CC)c2ccccc2n1 | inactive |
| CC1CC[C@]2(NC1)O[C@H]1CC3C4CC[C@H]5C[C@@H](O)CC[C@]5(C)C4CC[C@]3(C)[C@H]1[C@@H]2C (stereo not given in full) | active |
| CC1O[C@@H](Oc2c(-c3ccc(O)c(O)c3)oc3cc(O)cc(O)c3c2=O)[C@H](O)[C@H](O)[C@H]1O (stereo not given in full) | inactive |
| COC(=O)c1c(C)cc(OC)cc1O | inactive |
| C[C@@H]1CC[C@@]2(NC1)O[C@H]1C[C@H]3C4CC=C5C[C@@H](O)CC[C@]5(C)C4CC[C@]3(C)C1[C@@H]2C (stereo not given in full) | active |
| C[N+](C)(C)CC(O)CC(=O)O (stereo not given) | inactive |
| O=C(Cc1cccs1)NC1C(=O)N2C(C(=O)[O-])=C(C[n+]3ccccc3)CSC12 (stereo not given) | inactive |
| O=c1c(O)c(-c2ccc(O)c(O)c2)oc2cc(O)cc(O)c12 | inactive |
| NS(=O)(=O)c1cc(C2(O)NC(=O)c3ccccc32)ccc1Cl (stereo not given) | inactive |
| CCCCC1C(=O)N(c2ccccc2)N(c2ccc(O)cc2)C1=O (stereo not given) | inactive |
| O=c1c(O)c(-c2ccc(O)c(O)c2)oc2c(O[C@@H]3O[C@H](CO)[C@H](O)[C@@H](O)[C@H]3O)c(O)cc(O)c12 | inactive |
| CC1CCC2(OC1)OC1CC3C4CC[C@H]5C[C@@H](O)CC[C@]5(C)C4CC(=O)[C@]3(C)C1C2C (stereo not given in full) | inactive |
| CCC(c1ccc(O)cc1)C(CC)c1ccc(O)cc1 (stereo not given) | inactive |
| C[C@H]1O[C@H](OC2[C@@H](O)[C@@H](O)C(O)[C@H](O)[C@H]2O)[C@@H](N)C[C@@H]1N=C(N)C(=O)O (stereo not given in full) | inactive |
| CN(C)c1ccc2nc3ccc(=[N+](C)C)cc-3sc2c1 | active |
| O=c1cc(-c2ccc(O)cc2)oc2cc(O[C@@H]3O[C@H](CO)[C@@H](O)[C@H](O)[C@H]3O)cc(O)c12 | inactive |
| COC(=O)c1c(C)cc(O)cc1O | inactive |
| C=C1CCC2(OC1)OC1CC3C4CC=C5CC(O)CC(O)C5(C)C4CCC3(C)C1C2C (stereo not given) | inactive |
| CCOC(=O)c1c(C)cc(O)cc1O | inactive |
| C[C@]12C=CC(=O)C=C1CCC1C2[C@@H](O)C[C@@]2(C)C1CC[C@]2(O)C(=O)COP(=O)(O)O (stereo not given in full) | inactive |
| CC(=O)OCC1=C(C(=O)O)N2C(=O)[C@@H](NC(=O)Cc3cccs3)[C@H]2SC1 | inactive |
| O=C(OC1Cc2c(O)cc(O)cc2OC1c1cc(=O)c(O)c2c(O)c(O)cc(C3Oc4cc(O)cc(O)c4CC3O)c2c1)c1cc(O)c(O)c(O)c1 (stereo not given) | inactive |
| C[C@@H]1O[C@@H](OC[C@H]2OC(Oc3c(-c4ccc(O)c(O)c4)oc4cc(O)cc(O)c4c3=O)[C@H](O)[C@@H](O)[C@@H]2O)[C@H](O)[C@H](O)[C@H]1O (stereo not given in full) | inactive |
| Oc1cc2c(cc1O)C1c3ccc(O)c(O)c3OCC1(O)C2 (stereo not given) | inactive |
| C[C@@H]1CC[C@@]2(OC1)OC1CC3C4CC=C5C[C@@H](O)CC[C@]5(C)C4CC[C@]3(C)C1[C@@H]2C (stereo not given in full) | inactive |
| CC(=O)O[C@]1(C(C)=O)CCC2C3C=C(Cl)C4=CC(=O)[C@@H]5C[C@@H]5[C@]4(C)C3CC[C@@]21C (stereo not given in full) | inactive |
| CC(=O)Oc1ccc2c(c1OC(C)=O)OCC1(O)Cc3c(cc(OC(C)=O)c(OC(C)=O)c3OC(C)=O)C21 (stereo not given) | inactive |
| COC(=O)[C@H](Cc1ccccc1)NC(=O)[C@@H](N)CC(=O)O (H-Asp-Phe-OMe) | inactive |
| CN1C[C@H](C(=O)N[C@]2(C)O[C@@]3(O)[C@@H]4CCCN4C(=O)[C@H](Cc4ccccc4)N3C2=O)C[C@@H]2c3cccc4[nH]cc(c34)C[C@H]21 | inactive |
| C[C@@H]1CC[C@@]2(OC1)O[C@H]1CC3C4CC[C@H]5C[C@@H](O)CC[C@]5(C)C4CC[C@]3(C)[C@H]1[C@@H]2C (stereo not given in full) | inactive |
| O=C1C=C2C(=CCOC2O)O1 (stereo not given) | active |
| CC(C)N(CCC(C(N)=O)(c1ccccc1)c1ccccn1)C(C)C (stereo not given) | inactive |
| COc1ccccc1/C=C\C(=O)O | inactive |
